# assay.system: Carbapenem-hydrolyzing beta-lactamase KPC (Klebsiella pneumoniae)
# Sequence (Q9F663 whole entry): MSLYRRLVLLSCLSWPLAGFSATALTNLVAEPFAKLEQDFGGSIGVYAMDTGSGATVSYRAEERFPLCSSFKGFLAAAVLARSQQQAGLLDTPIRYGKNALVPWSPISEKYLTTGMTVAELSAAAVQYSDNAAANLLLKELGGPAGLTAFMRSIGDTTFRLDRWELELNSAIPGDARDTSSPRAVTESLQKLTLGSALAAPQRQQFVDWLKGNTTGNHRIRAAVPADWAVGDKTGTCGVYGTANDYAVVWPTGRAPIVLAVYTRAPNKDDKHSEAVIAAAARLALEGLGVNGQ
# method.summary: Inhibition of Klebsiella pneumoniae KPC-1 beta lactamase expressed in Escherichia coli DH5alpha by SDS-PAGE
pIC50: −log10 of the molar value.

structure.string: C[C@]1(Cn2ccnn2)[C@H](C(=O)O)N2C(=O)C[C@H]2S1(=O)=O
pIC50: 6.43

Just for reference, ChEMBL document CHEMBL1137666 is where these values come from.
